System: LOX IMVI melanoma
Test Summary: NCI-60 one-dose screen, 48 h
Applied Conditions: 10 µM unless noted
This is part of a sample that, as a whole, favours compounds with a hit. Of some 83,000 tested, about 20% had one in any assay. The source made the active and inactive calls. How the source made its calls: active means growth percent below 10; inactive means the rest.
Lab note: assign the record to one of t for active, f for inactive

Illustrative cases are given below, each with its answer.
Task item: Dear colleague, could you share the recorded outcome for "CCN(c1ccc(Cl)cc1)c1nc(-c2ccc([N+](=O)[O-])cc2)cs1" when you have a moment?
Reply: f

Task item: Dear colleague, could you share the recorded outcome for "COc1ccc(OC)c(-c2c(C#N)c(-c3cccs3)nc3c2c(-c2ccccc2)nn3-c2ccccc2)c1" when you have a moment?
Reply: f

Task item: Dear colleague, could you share the recorded outcome for Nc1ncnc2c1N=C(c1ccc(Cl)cc1)CC(c1ccc3c(c1)OCO3)N2 (stereo not given) when you have a moment?
Reply: f

Task item: Dear colleague, could you share the recorded outcome for "CCCCCCCCn1ccc2cc(NC(=O)CN3CCN(c4nc(C)cc(Cl)n4)CC3)ccc21" when you have a moment?
Reply: f

Task item: Dear colleague, could you share the recorded outcome for "Cn1c(=O)c2c(nc(NC3=NS(=O)(=O)c4ccccc43)n2CC(=O)N2CCc3ccccc32)n(C)c1=O" when you have a moment?
Reply: f

Task item: Dear colleague, could you share the recorded outcome for "O=C(NCc1ccccc1)Nc1ccccc1CNc1nc(Nc2ccc(OCCN3CCCC3)cc2)ncc1Cl" when you have a moment?
Reply: f

***
Task item: Dear colleague, could you share the recorded outcome for "N#C/C(=C\c1ccc2ccccc2c1)c1cc2ccccc2[nH]1" when you have a moment?
Reply: f

Task item: Dear colleague, could you share the recorded outcome for "Nc1nc2c([nH]1)c1[nH]c3ccccc3c1c1[nH]c3ccccc3c21" when you have a moment?
Reply: t

Task item: Dear colleague, could you share the recorded outcome for "Cc1ccccc1/C=C1\CN(C(=O)OC(C)(C)C)C/C(=C\c2ccccc2C)C1=O" when you have a moment?
Reply: t

* * *

Tested on: UO-31 renal
Test Summary: NCI-60 one-dose screen, 48 h (100 = growth as untreated, 0 = no growth, -100 = all killed)
Applied Conditions: 10 µM unless noted
Experimental: Growth inhibition of the UO-31 human tumor cell line is measured as a screen for anti-cancer activity. Cells are grown in 96 well plates and exposed to the test compound for 48 hours. Compounds are tested at a single concentration, which is 10^-5 M for most compounds. The reported endpoint is percent growth (GI% or GIPRCNT), where numbers from 0 - 100% represent growth inhibition, and numbers from -100% - 0 represent cell death. For example, a value of 40 represents 60% growth inhibition. […]
The panel holds about 83,000 compounds, 20% with a hit somewhere; the sample as a whole holds those more often.
Answer each item with its documented growth.
Answers are plain numbers, in %.

Task item: Please list growth recorded for the compound "Brc1ccc2[nH]cc(-c3nonc3-c3c[nH]c4ccccc34)c2c1"
Reply: 30.4

Task item: Please list growth recorded for the compound "COc1ccc(-c2nc3c(c(-c4ccccc4)nn3-c3ccccc3)c(-c3ccc(N4CCN(C)CC4)cc3)c2C#N)cc1"
Reply: 76.2

Task item: Please list growth recorded for the compound "CO[C@]12C=C/C(=C(/C(=O)OCc3cccnc3)C(=O)CCCCCCCC[C@@]3(OC)C=C/C(=C(/C(=O)OCc4cccnc4)C(=O)CCCCCCCC1)O3)O2"
Reply: -10.7

Now look at this one.
Task item: Please list growth recorded for the compound "COc1ccc(-c2nn(-c3ccccc3)cc2/C=C2/SC(=S)N(C)C2=O)cc1"
Reply: 16
